# setup.conditions: in 1,4-dioxane, 293.15 K
outcome.measure: solubility (mole fraction)
I only need the number, thanks.

solubility (mole fraction) lookup needed for COc1ccc2c(c1)c(CC(=O)O)c(C)n2C(=O)c1ccc(Cl)cc1 , thanks. 0.0249
